In this section, each of the compounds is paired with its reported melting point.

{"columns": ["compound", "result-type", "val"],
 "data": [
  ["CNC(=O)c1cc(C)ccc1NC(=O)c1ccc(O)cc1", "melting point", "250 to 252 °C"],
  ["CC(C)N(CCCCS(=O)(=O)CC(=O)O)c1cnc(-c2ccccc2)c(-c2ccccc2)n1", "melting point", "183 to 185 °C"],
  ["NC(=O)CNC(=O)c1cccc(-c2ccc(Cl)c3cc(Cc4cc(F)cc(Cl)c4)sc23)c1", "melting point", "204 to 205 °C"],
  ["COc1ccc(C(=C(C)C(=O)O)c2ccc(OC)cc2)cc1", "melting point", "134 to 135 °C"],
  ["COC(=O)c1ccccc1OCC(O)CNC(C)(C)CNC(N)=O (centres undefined)", "melting point", "62 °C"],
  ["CC(C)c1cc(Oc2ccc(Cl)cc2C(=O)O)cc(C(C)C)c1", "melting point", "129 to 130 °C"],
  ["Oc1ccc(Nc2ccn(Cc3ccccc3)n2)cc1", "melting point", "114 to 116 °C"],
  ["NC(=O)c1ccc(C2CCCc3cncn32)cc1 (centres undefined)", "melting point", "181 to 183 °C"],
  ["O=C(CO)N1CCN(C(=O)CO)CC1", "melting point", "169 to 173 °C"],
  ["Cc1sc(-c2ccccc2)nc1COc1ccc(COc2ncccc2C#N)cc1", "melting point", "120 to 121 °C"]
]}

Entry Cc1ccc(Sc2ccc(N)cc2)cc1 ; melting point = 76 °C

Measured melting point, Cc1cc(NC(C)(C)C)nc(NC(C)(C)C)c1C#N : 134 to 138 °C

Sample CCCc1c(C(=O)C(C)C)c2ccc(C(=O)OC)cc2n1Cc1ccccc1C ; melting point observed: 99 to 102 °C

For record COc1cc(OC)nc(Oc2cc(C)nc(-c3ccccc3)c2C(=O)O)n1 the listed melting point is 277 to 284 °C

* * *

Overview of reported melting point across a group of compounds:

Worked cases, melting point given:
{"columns": ["compound", "melting point"],
 "data": [
  ["CC(C)CSc1cc(C(=O)O)cc(N)c1Oc1ccccc1", "148 to 150 °C"],
  ["NC(=O)c1sc2ccc(OCc3ccccc3)cc2c1Cl", "206 °C"],
  ["CCCC(c1ccc(C#N)cc1)n1ccnc1 (stereo not given)", "63 to 71 °C"]
]}

compound NC1CCC(C(=O)Nc2cccc(-c3cccc4c3/C(=C/c3ccc[nH]3)C(=O)N4)c2)CC1 (stereo not given) , melting point observed: 210 to 212 °C

CC1CCc2nc(Cl)nc(-c3ccc(F)cc3)c2C1 (stereo not given) yielded melting point of 106 to 108 °C

// melting point lookup, compound = CC(=C1SC(=O)NC1=O)c1ccc(OCCOc2c(-c3ccc(F)c(F)c3)n(C)c3ccc(F)cc3c2=O)c(Cl)c1 , result: 215 to 218 °C

The compound listed as Cc1oc(-c2ccccc2)nc1CCC(=O)c1ccc(C=C2SC(=O)NC2=O)nc1 has a reported melting point of 228 to 230 °C

Memo: CCOC(=O)Cc1ccc(NC(=O)/C=C/c2c(C)noc2-c2ccccc2)cc1 , reported melting point: 164 to 165 °C

* * *

Reported melting point values for a set of compounds

Reported melting point for CC1=C(C(=O)OCCOC(C)C)C(c2cccc(Cl)c2Cl)C(c2nnco2)=C(C)N1 (stereo not given) was 151 to 154 °C

Summary for this compound, CCOC(=O)C(=NOCc1ccc(OCc2nc(-c3ccccc3)oc2C)cc1)c1ccc(OC)cc1 : melting point is 102 to 103 °C

Sample CON=CNC(=O)c1ccc(C2=NOC(c3cc(Cl)cc(Cl)c3)(C(F)(F)F)C2)cc1C(C)(C)N (stereo not given) ; melting point observed: 144 to 146 °C

Summary for this compound, Cc1cc(NCCO)c2nn(-c3ccccc3)c(C)c2n1 : melting point is 159 to 161 °C

Looking up CC(C)(C)N1C(O)c2cccc(Cl)c2S1(=O)=O (stereo not given) , I found its melting point recorded as 139 to 141 °C

According to the records, this compound CC(=O)c1ccc(Nc2cnc3c(NCc4ccccc4)nc(NCCO)nc3c2)cc1 displays melting point of 125 to 126 °C

Value of measured melting point for the entry CC(C)(C)OC(=O)NCCc1cccc(OCCC2Oc3ccccc3N(Cc3ccc(Cl)cc3)C2=O)c1 (stereo not given) : 97 to 98.5 °C

The compound identified as OCC1CC(n2c(Cl)nc3cc(Cl)c(Cl)cc32)C(O)C1O (stereo not given) registered its melting point at 206 to 210 °C

According to the records, this compound CS(=O)(=O)c1ccc(-c2c(-c3ccccc3)nc3sccn23)cc1 displays melting point of 190 to 192 °C

The recorded melting point for O=C1NC(=O)C(=Cc2ccc(OC3CCN(C(=O)OCC4c5ccccc5-c5ccccc54)CC3)cc2)S1 is 185 °C
